# System: HIV
# TEST METHOD NOTES: In vitro anti-HIV activity, PBMC cell-based assay, side by side with AZT
# SETTINGS: Human immunodeficiency virus 1
RECORDED METRIC: pIC50
Quick note: pIC50 values are minus log10 of concentrations in mol/L.

Query :: Tell me the measured pIC50 of `O=C(O)/C(O)=C/C(=O)c1cn(Cc2ccccc2)c(=O)n(Cc2ccccc2)c1=O` , please.
Result :: 7.70

----------
# TEST METHOD NOTES: Cytotoxicity (CC50) in the PBMC cell-based anti-HIV assay
RECORDED METRIC: CC50

Query :: Tell me the measured CC50 of `O=C(O)/C(O)=C/C(=O)c1cn(Cc2ccccc2)c(=O)n(Cc2ccccc2)c1=O` , please.
Result :: > 200 µM
